# ASSAY_OVERVIEW: Aqueous solubility determination via HPLC calibration curve
# Assay type: physicochemical
# ASSAY_CONTEXT: water, thermodynamic from solid, Solubility
READOUT_TYPE: solubility (mg/mL)
One number for each entry, in mg/mL.

Enquiry: Consider the molecule shown here: CC(C)(O)c1nc2ccc(Cl)cc2cc1N.O=C(O)C(=O)O [Compound 6] What is its recorded solubility?
Return: 15.6
